Assay: yeast display, Sf9 membrane polyspecificity reagent, FACS + sequencing; frameworks hold sequencing errors
Assay readout: polyreactivity (PSR sort gate)

Reference set (4 entries):
{"Chain": "QVHLVESGGGLVQAGGSLRLSCAASGSIFAINAMGWYRQAPGKERELVARISWSGGRTYYADSVKGRFTISRDNAKNTVYLQMNSLKPEDTAVYYCAKRYYKSLNRDEFDSWGQGTQVTVSS", "polyreactivity (PSR sort gate)": "high polyreactivity"}
{"Chain": "QVQLVESGGGLVQAGGSLRLSCAASGGIFRVYAMGWYRQAPGNERELVAAINGRGTSTYYADSVKGRFTISRDNAKNTVYLQMNSLKPEDTAVYYCAASGQYHYDYWGQGTQVTVSS", "polyreactivity (PSR sort gate)": "high polyreactivity"}
{"Chain": "QVQLVESGGGLVQAGGSLRLSCAASGRTFKGYTMGWYRQAPGKERELVAAITRSGGGTYYADSVKGRFTISRDNAKNTVYLQMNSLKPEDTAVYYCAAYNGSRRQEFDYWGQGTQVTVSS", "polyreactivity (PSR sort gate)": "high polyreactivity"}
{"Chain": "QVQLVESGGGLVQAGGSLRLSCAASGRIFSAYVMGWNRQAPGKERELVAAISSGGTRTSYADSVKGRFTISRDNAKNTVYLQMNSLTPEDTAVYYCAAARFYRSAYGYWGQGTQVTVSS", "polyreactivity (PSR sort gate)": "high polyreactivity"}

Could you now consider this next sequence?
Form field: reported polyreactivity (PSR sort gate) of QVQLVESGGGLVQAGGSLRLICAASGSTFTPYAMGWYRQEPGKERELVAAIRGSGGRTYYADSVKGRFTISRDNAKNTVYLQMNSLKPEDTAVYYCAASWLYTGWGRYDYWGQGTQVTVSS
high polyreactivity

###

Assay: yeast display, Sf9 membrane polyspecificity reagent, FACS + sequencing; frameworks hold sequencing errors
Assay readout: polyreactivity (PSR sort gate)

The examples below pair each entry with its known result.
{"Chain": "QVQLVESGGGLVQAGGSLRLSCAASGSTIGYYAMGWYRPAPGKERELVAAISWSGGSTYYADSVKGRFTISRDTAKNTVYFQMNSLKPEDTAGYYCAADTYPDYYLVEYYYWGQGTQVTVSS", "Recorded result": "low polyreactivity"}
{"Chain": "QVQLVESGGGLVQAGGSLRLSCAASGGIFGRNAMGWYRQAPGKERELVASISKSGGSTYYADSVKGRFTISRDNAKNTVYLQMKSLKPEDSAVYYCAARYSYFNWDNYYWGQGTLVTVSS", "Recorded result": "high polyreactivity"}
{"Chain": "QVQLVESGGGLVQAGGRLRISCAASGSIFEINAMGWYRQAPGKERELVAAITGSGGSTHYADSVKGRFPISRDNAKNTVYLQMNCLKPEDTAVYYCAAVPRYQYGYLGQGTQVTVSS", "Recorded result": "low polyreactivity"}
{"Chain": "QVQLVESAGGLVQAGASLRLSCAASGSTFYYYAMGWYRQAPGKERELVAAIDWDSGSTYYADSVKGRFTISRDNAKNTVFLQMNSLNPEDTAVYYCAADSWFSDFDYWGQGTQETVSS", "Recorded result": "high polyreactivity"}

Fill in the blank: the reported polyreactivity (PSR sort gate) of QDQLVESGGGLVQAGRSLRLTCAASGSIIPGNAMGWYRQAPGKERELVAVIDFSGASTYYADSVKGRFTISRDNAKNTVYLQMNSLKPEDTADYWGQGTQVTVSS is ____.
low polyreactivity

###

Assay: yeast display, Sf9 membrane polyspecificity reagent, FACS + sequencing; frameworks hold sequencing errors
Assay readout: polyreactivity (PSR sort gate)

{"Chain": "QVQLVESGGGLVQAGGSLRLSCAASGRIFYRNAMGWYRQAPAKERELVAAISWSGGRTYYADSVKGRFTISRDNAKNTVYLQMNSLKPEDTAVYYCNARTGYYTGQYDYWGQGTQVTVSS", "polyreactivity (PSR sort gate)": "high polyreactivity"}
{"Chain": "QVQLVESGGGLVQAGGSLRLSCAASGRISVFNAMGWYREAPGKERELVAAITSGGSTNYADSVKGRFTISRDNAKNTVYLQMNSLKPEDTAVYYCNADVYHSHEPHYDYWGQGTQVTVSS", "polyreactivity (PSR sort gate)": "low polyreactivity"}
{"Chain": "QVQLVESGGGLVQAGGSLRLSCAASGYIFYYNTMGWYRQAPGKERELVAAISATGGRTYYADSVKGRFTISRDNAKNTVYLQMNSLKPEDTAVYYCAKRGISPYGYWGQGTQVTVSS", "polyreactivity (PSR sort gate)": "high polyreactivity"}
{"Chain": "QVQLVESGGGLVQAGGSLRLSCAASGFTFSRYAMGWYRQAPGKERELVAAITASGGTTYYADSVKGRFTISRDNAKNTVYLQMNSLKAEDTAVYYCNALYYYLYGYDYWGQGTQVTVSS", "polyreactivity (PSR sort gate)": "high polyreactivity"}
{"Chain": "QVQLVESGVGLVQAGGSLRLSCAASGITISYYSKGWSRQEPGKEREFVAAISWSVGSTYYADSVKGRFTISRDNAKNTVYLQMNSLKPEDTAVYYCAAEDGYWPTYYYWGQGTQVTVSW", "polyreactivity (PSR sort gate)": "high polyreactivity"}

Look up polyreactivity (PSR sort gate): QVQLVESGGGLVQAGGSLRLSCDASGSTFWYYAMGWYRQAPGKERELVASITSSGSTNYADSVKGRFTISRDNAKNTVYLQMNSLKPEDTAVYYCNRVSKYERLSRYGYYGYYYWGQGTQVTVSS
high polyreactivity

Bench note: what polyreactivity (PSR sort gate) did QVQLVESGGGLVQAGGSLRLSCAASGSTFAYNAMGWYRQAPGKERELVAAISFSGGSTYYADSVKGRFTLSRDNAKNTVYLQMNSLKQEDTAVYYCAKRGYPSTNGRQEGYWGQGTQVTVSS show?
low polyreactivity

Fill blank: measured polyreactivity (PSR sort gate) of the sequence QVQLVESGGGLVQAGCSLRLSCAASGRTLGWNAMGWYRQAPGKERELVAAISSSTSTYYADSVKGRFTISRDNAKNTVYLQMNSLKPEDTAVYYCAALYWGQGTQVTVSS is ____.
low polyreactivity

Return reported polyreactivity (PSR sort gate); argument: QVQLVESGGGLVQAGGSLRLSCAASGSTFQYNAMGWYRQAPGKERELVAAITGSGGSTYYADSVKGRFTISRDNAKNTVYLQMNSLKPEDTAVYYCAKLVRSFNWVLARHKYDYWGQGTQVTVSS
low polyreactivity

Give the measured polyreactivity (PSR sort gate) of QVQLVESGGGLVQAGGSLRLSCAASGIIFARYAMGWYRQAPGKERELVAAITRRAVSTYYADSVKGRFTISRDNAKNTVYLQMNSLKPEDTAVYYCAADRASYFTYAYGYWGQGTQVTVSS .
high polyreactivity

###

Test: yeast display, Sf9 membrane polyspecificity reagent, FACS + sequencing; frameworks hold sequencing errors

{"Chain": "QVQLVDSGGGLVQAGGSLRLSCAASGSIFYYYAMVWYRQAPGKERELVAAISRNGGSTSYADSVKGRFTISRDNAKNTVYLQMNSLKPEDTAVYYCAVRKFHYFRYEYWGQGTQVTVSS", "polyreactivity (PSR sort gate)": "low polyreactivity"}
{"Chain": "QVQLVESGGCLVQAGGSLRLTCAASGFTFVYNAMGWYRQDPGKERELVARISVSGGSTYYADSVKGRFTISRDNAKNTVYLQMNSLKPEDTSVYYCAAELSAPQPDYQLKVDYYYWGQGTQVTVSS", "polyreactivity (PSR sort gate)": "low polyreactivity"}

###

Assay: yeast display, Sf9 membrane polyspecificity reagent, FACS + sequencing; frameworks hold sequencing errors
Assay readout: polyreactivity (PSR sort gate)

The examples below pair each entry with its known result.
{"Chain": "QVQLVESGGGLVQAGGSLRLSCAASGSIFAYYTMGWYRQAAGNERELVAVINASGGGTYYADSVKGRFTISRDNAKNTVYLQMNSLKPEDTAVYYCAATYSPFDFYYWGQGTQVTVSS", "polyreactivity (PSR sort gate)": "low polyreactivity"}
{"Chain": "QVQLVESGGGLVQAGGSLLLSCAASGFTFQYYAMGWYRPEPGKERELVASISWSGGSTYYADSVKGRFTISRDNAKNTVYLQMHSLKPEDTAVYYCAATVTYFFSSARFSAYGYWGQGTQVTVSS", "polyreactivity (PSR sort gate)": "high polyreactivity"}
{"Chain": "QVQLVESGGGLVQAGGSLRLSCAASGRTFGKYAMGWDRQAPGKEMELVAAISTDVGDTYYADSVKGRFTISRDNAKNTVYLQMNSLKPEDTAVYYCAASFVYYGVDFVSWFWEGDYWGQGTQVTVSS", "polyreactivity (PSR sort gate)": "low polyreactivity"}
{"Chain": "QVQLEESGGGLVQAGGSLRLSCAASGLIFIVYAMGWYRQAPGKERELVAAISFSGGSTYYADSVKGRFTISRDNAKNTVYLQMNSLKPEDTAVYYCAARARYTRRGRNYDYWGQGTQVTVSS", "polyreactivity (PSR sort gate)": "high polyreactivity"}

Then there is this sequence:
// query polyreactivity (PSR sort gate) value for entry QVQRVESGGGLVQAGGSLRLSCDASGFTFVPYAMGWYRQAPGKERELVAAISWRRGSTYYADSVKGRFTISRDNAKNTVYLQMNSLKPEDTAVYYCARKGYHYSETSAIFALYDYWGQGTQVTVSS
high polyreactivity
